Numbers sourced from patent US10189809B2.

# System: Thoracic aortic rings
# experiment.description: Alternative thoracic aortic rings assay (Example 19b; resting tension as 100% inhibition)
# Set-up: species or system rat
# conditions.used: Rattus norvegicus; 10 μM, Table 10A; read-out: Percent Relaxation at 10 μM
value.kind: inhibition at 10 µM

Consider the following illustrative entries.
In [3]: df
Out[3]:
                                   compound           value_kind  measured_value
0  Nc1ccnc(-c2cc(-c3ccon3)n(Cc3ccccc3F)n2)n1 [Compound I-97]  inhibition at 10 µM     100 to 120%
1  Nc1ccnc(-c2cc(-c3ncco3)n(Cc3ccccc3F)n2)n1 [Compound I-87]  inhibition at 10 µM     100 to 120%
2  Fc1ccccc1Cn1nc(-c2ncccn2)cc1-c1ccccn1 [Compound I-75]  inhibition at 10 µM       60 to 80%
3  COC(=O)Nc1c(N)nc(-c2cc(-c3ccsc3)n(Cc3ccccc3F)n2)nc1N [Compound I-71]  inhibition at 10 µM       60 to 80%
4  Nc1nc(-c2cc(-c3ccon3)n(Cc3ccccc3F)n2)ncc1-c1ccncc1 [Compound I-102]  inhibition at 10 µM      80 to 100%

Input: For the compound COC(=O)N(C)c1cnc(-c2cc(-c3ccon3)n(Cc3ccccc3F)n2)nc1N [Compound I-105] , give its measured inhibition at 10 µM value.
Output: 100 to 120%

Input: For the compound COC(=O)N(C)c1c(N)nc(-c2cc(-c3ncco3)n(Cc3ccccc3F)n2)nc1N [Compound I-100] , give its measured inhibition at 10 µM value.
Output: 100 to 120%

Input: For the compound CC(=O)Nc1cnc(-c2cc(-c3ccon3)n(Cc3ccccc3F)n2)nc1N [Compound I-112] , give its measured inhibition at 10 µM value.
Output: 100 to 120%
